- assay_name: NCI Yeast Anticancer Drug Screen. Data for the cln2 rad14 strain (AID 165);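 also: 0% = growth equal to vehicle treated cultures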
- recorded_conditions: S. cerevisiae cln2 rad14 strain, at 5.0 µM (retest, dose inferred, filed as 0.5), active compounds read high
The panel holds about 79,000 compounds, 15% with a hit somewhere; the sample as a whole holds those more often.
readout_label: growth inhibition (%)
Provide the reading as a plain figure in %.

Examples from the recorded data:
### Prompt What value of measured growth inhibition is listed for O=C(/C=C\c1ccc([N+](=O)[O-])o1)/C=C/c1ccc([N+](=O)[O-])o1 ?
### Response 28

### Prompt Consider the compound CC(C)C(=O)c1ccc([N+](=O)[O-])o1 and give its measured growth inhibition.
### Response -3

### Prompt What does the record list as growth inhibition for Clc1ccc(C2=CC(c3ccccc3)N3C(=N[C@H]4CCCC[C@@H]43)N2)cc1 (stereo partly specified) ?
### Response 11

### Prompt Can you look up the measured growth inhibition of O=C1C(=O)C2CC3(CC1N2Cc1ccccc1)OCCO3 for me?
### Response 5

### Prompt Consider the compound CCCN(CCC)C(=O)CCC(C)=O and give its measured growth inhibition.
### Response -7

### Prompt Name the reported growth inhibition value associated with the compound Cc1cccc(NC(=O)Oc2ccc(Cl)c3cccnc23)c1
### Response 95

### Prompt Name the recorded growth inhibition for CCOC(=O)Nc1cc2c(cc1Br)-c1ccccc1C2O (stereo unspecified) .
### Response -2

### Prompt What value of measured growth inhibition is listed for Nc1nc(-c2ccccn2)cc2c(Cl)cccc12 ?
### Response 13

Further cases:
### Prompt Quick check: growth inhibition of O=C(O)CCCCCCCCC(=O)O.[Ag] ?
### Response 70
